Measured Maximum O.D., listed per entry.
Tested on: affinity purified β2GPI-dependent antiphospholipid antibody
Experiment: Direct binding ELISA, nickel chelate-coated wells charged with recombinant β2GPI proteins (no cardiolipin)
Set-up: species or system human
Details: Ab 6652; O.D. at 550 nm
Experimental: Nickel Chelate-coated microwell plates (NCP 010 00 Xenopore Corp. 374 Midland Ave. Saddle Brook, N.J. USA) were coated with 50 μl of serial dilutions of the various recombinant β2GPI, in PBS, at room temperature for 2 hours. The plates were washed three times with PBS and blocked with 75 μl of a 1% gelatin (Sigma #G-2500) in PBS for one hour room temperature. […] The optical density, at 550 nm, was determined by reading the plates in a microplate autoreader (Bio-Teck Instruments, model EL311). […]

molecule="1----: recombinant β2GPI protein with domain 1 only (SEQ ID NO:4 region), His6 tail (protein) GRTCPKPDDLPFSTVVPLKTFYEPGEEITYSCKPGYVSRGGMRKFICPLTGLWPINTLKCTPRVGHHHHHH" assay_result=0.262

## Task Report Maximum O.D. for 123--: recombinant β2GPI deletion mutant with domains 1, 2, 3 (protein) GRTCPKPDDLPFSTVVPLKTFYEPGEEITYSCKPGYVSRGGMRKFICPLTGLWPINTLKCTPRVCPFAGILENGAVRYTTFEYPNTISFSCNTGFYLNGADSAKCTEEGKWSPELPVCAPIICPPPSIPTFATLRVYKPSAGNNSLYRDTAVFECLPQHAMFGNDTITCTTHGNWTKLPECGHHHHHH please.
## Result 0.320

## Task Now this one: ---45: recombinant β2GPI deletion mutant with domains 4, 5 (protein) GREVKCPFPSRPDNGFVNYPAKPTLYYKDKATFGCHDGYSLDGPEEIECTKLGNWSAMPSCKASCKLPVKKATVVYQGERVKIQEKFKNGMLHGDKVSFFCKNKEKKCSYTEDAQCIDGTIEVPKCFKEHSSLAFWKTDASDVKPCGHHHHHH
## Result 0.013
